- TARGET_DESC: alpha-tropomyosin (Oryctolagus cuniculus, UniProt P58772)
- Sequence (P58772 whole entry): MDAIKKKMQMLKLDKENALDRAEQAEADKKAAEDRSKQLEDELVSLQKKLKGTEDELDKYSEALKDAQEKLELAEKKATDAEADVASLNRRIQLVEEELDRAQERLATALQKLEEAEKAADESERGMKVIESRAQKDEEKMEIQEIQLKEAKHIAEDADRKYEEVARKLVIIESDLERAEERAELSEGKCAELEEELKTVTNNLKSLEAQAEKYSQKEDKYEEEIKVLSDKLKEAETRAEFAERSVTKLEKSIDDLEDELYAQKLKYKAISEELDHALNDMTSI
- PROTOCOL_NOTES: fluorescence titration
pKd: −log10 of the molar value.

{"columns": ["BINDER", "pKd"],
 "data": [
  ["ENREVGDWHKNIDALSGMEGRKKKFES [cardiac troponin I C-terminal peptide HcTnI-C27-H 184-210]", 4.82],
  ["ENREVGDWRKNIDALSGMEGRKKKFES [cardiac troponin I C-terminal peptide HcTnI-C27 184-210]", 5.10]
]}
